Measured Binding Affinity values are reported for all entries that follow.
Target: human properdin (human, UniProt P27918 28-469)
Sequence (P27918 28-469 limits assumed): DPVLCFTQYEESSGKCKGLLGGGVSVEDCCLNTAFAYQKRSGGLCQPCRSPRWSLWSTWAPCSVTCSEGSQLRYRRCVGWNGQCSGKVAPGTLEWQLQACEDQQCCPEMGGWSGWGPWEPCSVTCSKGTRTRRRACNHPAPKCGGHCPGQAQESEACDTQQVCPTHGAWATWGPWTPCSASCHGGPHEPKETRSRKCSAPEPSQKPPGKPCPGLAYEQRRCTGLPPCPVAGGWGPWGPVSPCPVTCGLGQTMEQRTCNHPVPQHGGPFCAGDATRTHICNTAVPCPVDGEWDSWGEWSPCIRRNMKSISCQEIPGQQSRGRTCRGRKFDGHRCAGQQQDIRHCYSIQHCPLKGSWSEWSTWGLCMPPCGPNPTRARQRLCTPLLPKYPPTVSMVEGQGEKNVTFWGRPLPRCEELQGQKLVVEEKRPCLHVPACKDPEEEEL
Assay: ELISA, human properdin coated on plate
Write the number in pM without appending the unit.

NMT19 (antibody, V domains shown) VH: EVQLVQSGAEVKKPGASVKVSCKASGHIFTNYPIHWVRQAPGQGLEWMGFIDPGGGHDEPDERFRDRVTMTADTSTSTAYMELSSLRSEDTAVYYCARRGGGYYLDYWGQGTTVTVSS VL: DIQMTQSPSSLSASVGDRVTITCRASQDISFFLNWYQQKPGKAPKLLIYYTSRYHSGVPSRFSGSGSGTDFTLTISSLQPEDFATYYCQHGQTLPWTFGQGTKLEIK    486

Turning now to a further binder:
Recorded Binding Affinity of NMT22 (antibody, V domains shown) VH: EVQLVQSGAEVKKPGASVKVSCKASGYIFTNYPIHWVRQAPGQGLEWMGFIDPGGGYDESAQKFRGRVTLTADTSTSTVYMELSSLRSEDTAVYYCARRGGGYYLDYWGQGTTLTVSS VL: DIQMTQSPSSLSASVGDRVTITCRASQDISFFLNWYQQKPGKAPKLLIYYTSRYHSGVPSRFSGSGSGTDFTLTISSLQPEDFATYYCQHGSTLPYTFGQGTKLEIK , please.
335

The measurements presented in this section are drawn from patent US20230073274A1.
